cond: in isobutyl acetate, 323.15 K
measure.name: solubility (mole fraction)

>>> endpoint_value("O=C1OC(=O)[C@H]2[C@@H]1[C@@H]1C=C[C@H]2O1")
0.0324

---

cond: in isopentyl acetate, 293.15 K
measure.name: solubility (mole fraction)

>>> endpoint_value("O=C1OC(=O)[C@H]2[C@@H]1[C@@H]1C=C[C@H]2O1")
0.011

---

cond: in n-butyl acetate, 308.15 K
measure.name: solubility (mole fraction)

>>> endpoint_value("O=C1OC(=O)[C@H]2[C@@H]1[C@@H]1C=C[C@H]2O1")
0.0226

---

cond: in DMF, 308.15 K
measure.name: solubility (mole fraction)

>>> endpoint_value("O=C1OC(=O)[C@H]2[C@@H]1[C@@H]1C=C[C@H]2O1")
0.181

---

cond: in n-propyl acetate, 313.15 K
measure.name: solubility (mole fraction)

>>> endpoint_value("O=C1OC(=O)[C@H]2[C@@H]1[C@@H]1C=C[C@H]2O1")
0.033

---

cond: in methyl acetate, 323.15 K
measure.name: solubility (mole fraction)

>>> endpoint_value("O=C1OC(=O)[C@H]2[C@@H]1[C@@H]1C=C[C@H]2O1")
0.0965

---

cond: in 1,4-dioxane, 288.15 K
measure.name: solubility (mole fraction)

>>> endpoint_value("O=C1OC(=O)[C@H]2[C@@H]1[C@@H]1C=C[C@H]2O1")
0.0238

---

cond: in DMF, 298.15 K
measure.name: solubility (mole fraction)

>>> endpoint_value("O=C1OC(=O)[C@H]2[C@@H]1[C@@H]1C=C[C@H]2O1")
0.15

---

cond: in n-pentyl acetate, 303.15 K
measure.name: solubility (mole fraction)

>>> endpoint_value("O=C1OC(=O)[C@H]2[C@@H]1[C@@H]1C=C[C@H]2O1")
0.0158

---

cond: in n-butyl acetate, 313.15 K
measure.name: solubility (mole fraction)

>>> endpoint_value("O=C1OC(=O)[C@H]2[C@@H]1[C@@H]1C=C[C@H]2O1")
0.0258

---

cond: in ethyl acetate, 288.15 K
measure.name: solubility (mole fraction)

>>> endpoint_value("O=C1OC(=O)[C@H]2[C@@H]1[C@@H]1C=C[C@H]2O1")
0.0207

---

cond: in NMP, 318.15 K
measure.name: solubility (mole fraction)

>>> endpoint_value("O=C1OC(=O)[C@H]2[C@@H]1[C@@H]1C=C[C@H]2O1")
0.256

---

cond: in acetone, 298.15 K
measure.name: solubility (mole fraction)

>>> endpoint_value("O=C1OC(=O)[C@H]2[C@@H]1[C@@H]1C=C[C@H]2O1")
0.0629

---

cond: in n-propyl acetate, 278.15 K
measure.name: solubility (mole fraction)

>>> endpoint_value("O=C1OC(=O)[C@H]2[C@@H]1[C@@H]1C=C[C@H]2O1")
0.012

---

cond: in ethyl acetate, 323.15 K
measure.name: solubility (mole fraction)

>>> endpoint_value("O=C1OC(=O)[C@H]2[C@@H]1[C@@H]1C=C[C@H]2O1")
0.0569

---

cond: in n-butyl acetate, 303.15 K
measure.name: solubility (mole fraction)

>>> endpoint_value("O=C1OC(=O)[C@H]2[C@@H]1[C@@H]1C=C[C@H]2O1")
0.0196

---

cond: in ethyl acetate, 308.15 K
measure.name: solubility (mole fraction)

>>> endpoint_value("O=C1OC(=O)[C@H]2[C@@H]1[C@@H]1C=C[C@H]2O1")
0.0363

---

cond: in acetone, 303.15 K
measure.name: solubility (mole fraction)

>>> endpoint_value("O=C1OC(=O)[C@H]2[C@@H]1[C@@H]1C=C[C@H]2O1")
0.0717

---

cond: in methyl acetate, 313.15 K
measure.name: solubility (mole fraction)

>>> endpoint_value("O=C1OC(=O)[C@H]2[C@@H]1[C@@H]1C=C[C@H]2O1")
0.0687

---

cond: in n-butyl acetate, 323.15 K
measure.name: solubility (mole fraction)

>>> endpoint_value("O=C1OC(=O)[C@H]2[C@@H]1[C@@H]1C=C[C@H]2O1")
0.0339

---

cond: in ethyl acetate, 303.15 K
measure.name: solubility (mole fraction)

>>> endpoint_value("O=C1OC(=O)[C@H]2[C@@H]1[C@@H]1C=C[C@H]2O1")
0.031

---

cond: in isopropyl acetate, 293.15 K
measure.name: solubility (mole fraction)

>>> endpoint_value("O=C1OC(=O)[C@H]2[C@@H]1[C@@H]1C=C[C@H]2O1")
0.0164

---

cond: in acetone, 288.15 K
measure.name: solubility (mole fraction)

>>> endpoint_value("O=C1OC(=O)[C@H]2[C@@H]1[C@@H]1C=C[C@H]2O1")
0.0483

---

cond: in DMF, 313.15 K
measure.name: solubility (mole fraction)

>>> endpoint_value("O=C1OC(=O)[C@H]2[C@@H]1[C@@H]1C=C[C@H]2O1")
0.192

---

cond: in ethyl acetate, 278.15 K
measure.name: solubility (mole fraction)

>>> endpoint_value("O=C1OC(=O)[C@H]2[C@@H]1[C@@H]1C=C[C@H]2O1")
0.0157

---

cond: in acetonitrile, 293.15 K
measure.name: solubility (mole fraction)

>>> endpoint_value("O=C1OC(=O)[C@H]2[C@@H]1[C@@H]1C=C[C@H]2O1")
0.0453

---

cond: in n-pentyl acetate, 283.15 K
measure.name: solubility (mole fraction)

>>> endpoint_value("O=C1OC(=O)[C@H]2[C@@H]1[C@@H]1C=C[C@H]2O1")
0.00916

---

cond: in acetone, 313.15 K
measure.name: solubility (mole fraction)

>>> endpoint_value("O=C1OC(=O)[C@H]2[C@@H]1[C@@H]1C=C[C@H]2O1")
0.0932

---

cond: in acetonitrile, 313.15 K
measure.name: solubility (mole fraction)

>>> endpoint_value("O=C1OC(=O)[C@H]2[C@@H]1[C@@H]1C=C[C@H]2O1")
0.078

---

cond: in NMP, 298.15 K
measure.name: solubility (mole fraction)

>>> endpoint_value("O=C1OC(=O)[C@H]2[C@@H]1[C@@H]1C=C[C@H]2O1")
0.184

---

cond: in n-propyl acetate, 283.15 K
measure.name: solubility (mole fraction)

>>> endpoint_value("O=C1OC(=O)[C@H]2[C@@H]1[C@@H]1C=C[C@H]2O1")
0.0135

---

cond: in acetone, 308.15 K
measure.name: solubility (mole fraction)

>>> endpoint_value("O=C1OC(=O)[C@H]2[C@@H]1[C@@H]1C=C[C@H]2O1")
0.0818

---

cond: in DMF, 288.15 K
measure.name: solubility (mole fraction)

>>> endpoint_value("O=C1OC(=O)[C@H]2[C@@H]1[C@@H]1C=C[C@H]2O1")
0.126
